The origin of these recorded values is the supplement of paper PMC9732359.

# PROTOCOL SUMMARY: protein stability index of a GFP-peptide fusion (yeast GPS) (PSI 1-4); higher = more stable; sorted into four equal gates, so the index is relative within each strain
# EXPERIMENTAL SETUP: ubr1∆
MEASUREMENT KIND: protein stability index
Form rule: numeric answer, no unit written next to it.

Look over these answered cases.
>>> assay_result("SFIISSLDTLELESITE [NUT1]")
1.78
>>> assay_result("VLITDHIEKLENEFVVL [CDC53]")
2.58
>>> assay_result("CLNTQRGDSTETSSFGS [RRI1]")
3.56
>>> assay_result("ESVPIYSIDEFFLQRKL [BRR2]")
3.33
>>> assay_result("NVEKPSSKPAFNLISNA [YLR335W/NUP2]")
3.16
>>> assay_result("AAAGGDAAAEEEKEEEA [RPP1B]")
3.08
>>> assay_result("NGNWEVGVHIADVTHFV [DIS3]")
2.62
>>> assay_result("WPTTHKYPLGHFVRDLG [DIS3]")
2.49
>>> assay_result("EKPLILADYIVEVLLVN [NUT1]")
1.32
>>> assay_result("DHDDSTDDADDHINWEH [NSL1]")
3.35

[ask] Item SKFSKQQAKGAFQKVAA [RPL24A] has what recorded protein stability index?
[reply] 2.54

[ask] Lookup PVLSTIAFLVGLVNPKT [SWI3]
[reply] 2.86

[ask] Lookup FGNSSPQLTFTHVANFM [YML103C/NUP188]
[reply] 2.92

[ask] Lookup EYNRLKVQDAIEEEIFD [LIN1]
[reply] 2.93
